- Tested on: Proteus mirabilis
- Assay explanation: Effect of inoculum size on susceptibility of Enterobacteriaceae
- Study conditions: read-out: Minimum Inhibitory Concentration, Proteus mirabilis strain 2, A, Inoculum of 10^2 organisms
Endpoint label: MIC (µg/mL)
Numeric answer only, unit µg/mL assumed.

{"Structure smiles string": "Cc1nnc(SCC2=C(C(=O)O)N3C(=O)[C@@H](NC(=O)Cn4cnnn4)[C@H]3SC2)s1", "Experimental target": "Proteus mirabilis", "MIC, µg/mL": 4}
{"Structure smiles string": "NCc1ccccc1CC(=O)N[C@@H]1C(=O)N2C(C(=O)O)=C(CSc3nnnn3CC(=O)O)CS[C@H]12", "Experimental target": "Proteus mirabilis", "MIC, µg/mL": 0.5}
{"Structure smiles string": "CC(=O)OCC1=C(C(=O)O)N2C(=O)[C@@H](NC(=O)Cc3cccs3)[C@H]2SC1", "Experimental target": "Proteus mirabilis", "MIC, µg/mL": 4}

Query: Give its MIC value. Item: `O=C(Cc1cccs1)N[C@@H]1C(=O)N2C(C(=O)[O-])=C(C[n+]3ccccc3)CS[C@H]12`
Response: 8

###

- Test system: Enterobacter aerogenes
- Assay explanation: Minimum growth inhibitory and bactericidal concentrations for Enterobacteriaceae
- Format: cell-based
- Study conditions: Klebsiella aerogenes, Enterobacter aerogenes strain 3; inoculum 10^4 cells; read-out: MBC, minimum bactericidal concentration
In this section, each of the compounds is paired with its reported MBC.
Numeric answer only, unit mg/L assumed.

# example entries with known answers
{"Structure smiles string": "O=C(Cc1cccs1)N[C@@H]1C(=O)N2C(C(=O)[O-])=C(C[n+]3ccccc3)CS[C@H]12", "Endpoint label": "MBC", "Meas value": 250}
{"Structure smiles string": "NCc1ccccc1CC(=O)N[C@@H]1C(=O)N2C(C(=O)O)=C(CSc3nnnn3CC(=O)O)CS[C@H]12", "Endpoint label": "MBC", "Meas value": 16}

# context switch: different compound, same MBC
Query: Give its MBC value. Item: `Cc1nnc(SCC2=C(C(=O)O)N3C(=O)[C@@H](NC(=O)Cn4cnnn4)[C@H]3SC2)s1`
Response: 250

###

In this section, each of the molecules is paired with its reported MIC.
- Test system: Klebsiella pneumoniae
- Assay explanation: Effect of inoculum size on susceptibility of Enterobacteriaceae
- Study conditions: read-out: Minimum Inhibitory Concentration, Klebsiella pneumoniae strain 3, A, Inoculum of 10^2 organisms
Numeric answer only, unit µg/mL assumed.

# example entries with known answers
{"Molecule": "O=C(Cc1cccs1)N[C@@H]1C(=O)N2C(C(=O)[O-])=C(C[n+]3ccccc3)CS[C@H]12 [Cephaloridine]", "Experimental target": "Klebsiella pneumoniae", "MIC (µg/mL)": 2}
{"Molecule": "NCc1ccccc1CC(=O)N[C@@H]1C(=O)N2C(C(=O)O)=C(CSc3nnnn3CC(=O)O)CS[C@H]12 [Example 1]", "Experimental target": "Klebsiella pneumoniae", "MIC (µg/mL)": 0.5}

Query: Record lookup: for Klebsiella pneumoniae, what MIC belongs to CC(=O)OCC1=C(C(=O)O)N2C(=O)[C@@H](NC(=O)Cc3cccs3)[C@H]2SC1 [Cephalothin] ?
Response: 2

Query: Also need Cc1nnc(SCC2=C(C(=O)O)N3C(=O)[C@@H](NC(=O)Cn4cnnn4)[C@H]3SC2)s1 [Cefazolin] , thanks.
Response: 1

###

In this section, each of the compounds is paired with its reported MIC.
- System: Klebsiella pneumoniae
- Assay explanation: Effect of inoculum size on susceptibility of Enterobacteriaceae
- Study conditions: read-out: Minimum Inhibitory Concentration, Klebsiella pneumoniae strain 6, B, Inoculum of 10^6 organisms
Numeric answer only, unit µg/mL assumed.

{"Structure smiles string": "NCc1ccccc1CC(=O)N[C@@H]1C(=O)N2C(C(=O)O)=C(CSc3nnnn3CC(=O)O)CS[C@H]12", "MIC / µg/mL": 4}

Query: Give its MIC value. Item: `O=C(Cc1cccs1)N[C@@H]1C(=O)N2C(C(=O)[O-])=C(C[n+]3ccccc3)CS[C@H]12`
Response: 16

Query: Also need `CC(=O)OCC1=C(C(=O)O)N2C(=O)[C@@H](NC(=O)Cc3cccs3)[C@H]2SC1` , thanks.
Response: 16

Query: Also need `Cc1nnc(SCC2=C(C(=O)O)N3C(=O)[C@@H](NC(=O)Cn4cnnn4)[C@H]3SC2)s1` , thanks.
Response: 32
